System: Cryptococcus neoformans
Assay: Antifungal activity against Cryptococcus neoformans ATCC 32264 assessed as growth inhibition at 15.6 ug/mL after 48 hrs by microplate reader analysis
Format: functional
Conditions: ATCC 32264, 48 h, read-out: GI
Mark T for reported inhibition of growth at 15.6 µg/mL of 80% or greater; mark F for anything smaller.

>>> print(df.to_string())
                                   smiles  cat
0                 CCCCNc1nc(N)nc(OC)c1N=O    F
1  COc1nc(N)nc2c1ncn2C12CC3CC(CC(C3)C1)C2    F
2           COc1nc(N)c(N=O)c(Nc2ccccc2)n1    T

----------
Tested on: Cryptococcus neoformans
Experiment: Antifungal activity against Cryptococcus neoformans ATCC 32264 assessed as growth inhibition at 31.25 ug/mL after 48 hrs by microplate reader analysis
Type: functional
Conditions: ATCC 32264, 48 h, read-out: GI
If the reported inhibition of growth at 31.25 µg/mL equals or exceeds 80%, assign Yes. If not, assign No.

                                   smiles  cat
0           COc1nc(N)c(N=O)c(Nc2ccccc2)n1  Yes
1          COc1nc(N)c(N=O)c(OCc2ccccc2)n1  Yes
2                 CCCCNc1nc(N)nc(OC)c1N=O   No
3  COc1nc(N)nc2c1ncn2C12CC3CC(CC(C3)C1)C2   No

----------
Assay: Acute toxicity in bony fish assessed as mortality at 38.4 ug/mL after 96 hrs
Settings: actinopterygii; read-out: Activity
PARAMETER: mortality at 96 h, 38.4 ug/mL (%)

                            smiles                      parameter  obs_value
0  COc1nc(N)nc(Nc2cccc(Cl)c2)c1N=O  mortality at 96 h, 38.4 ug/mL          0

----------
Test system: Trichophyton rubrum
Assay: Antifungal activity against Trichophyton rubrum CCC 110 by NCCLS broth microdilution method
Type: functional
Conditions: read-out: MIC100
Entries and their MIC

SMILES	MIC, µg/mL
CN(C/C=C/C#CC(C)(C)C)Cc1cccc2ccccc12	0.01
C[C@@H]1[C@H](O)[C@@H](C)/C=C/C=C/C=C/C=C/C=C/C=C/C=C/[C@H](O[C@@H]2O[C@H](C)[C@@H](O)[C@H](N)[C@@H]2O)C[C@@H]2O[C@](O)(C[C@@H](O)C[C@@H](O)[C@H](O)CC[C@@H](O)C[C@@H](O)CC(=O)O[C@H]1C)C[C@H](O)[C@H]2C(=O)O	0.06
COc1nc(N)c(N=O)c(OCc2ccccc2)n1	125

----------
# maps each entry to its inhibition of growth at 31.25 µg/mL
Tested on: Candida tropicalis
Experiment: Antifungal activity against Candida tropicalis assessed as growth inhibition at 31.25 ug/mL by microplate reader analysis
Type: functional
Conditions: read-out: GI
PARAMETER: inhibition of growth at 31.25 µg/mL (%)

                                   smiles                            parameter  obs_value
0  COc1nc(N)nc2c1ncn2C12CC3CC(CC(C3)C1)C2  inhibition of growth at 31.25 µg/mL       47.3
1          COc1nc(N)c(N=O)c(OCc2ccccc2)n1  inhibition of growth at 31.25 µg/mL        100
2           COc1nc(N)c(N=O)c(Nc2ccccc2)n1  inhibition of growth at 31.25 µg/mL        100
3         COc1nc(N)nc(Nc2cccc(Cl)c2)c1N=O  inhibition of growth at 31.25 µg/mL       85.2
4                 CCCCNc1nc(N)nc(OC)c1N=O  inhibition of growth at 31.25 µg/mL       93.2

----------
# MIC per record follows
System: Nannizzia gypsea
Assay: Antifungal activity against Microsporum gypseum CCC 115 by NCCLS broth microdilution method
Assay type: functional
Conditions: read-out: MIC100

COMPOUND	MEASURED TARGET	MIC / µg/mL
CN(C/C=C/C#CC(C)(C)C)Cc1cccc2ccccc12	Nannizzia gypsea	0.04
COc1nc(N)c(N=O)c(OCc2ccccc2)n1	Nannizzia gypsea	62.5
C[C@@H]1[C@H](O)[C@@H](C)/C=C/C=C/C=C/C=C/C=C/C=C/C=C/[C@H](O[C@@H]2O[C@H](C)[C@@H](O)[C@H](N)[C@@H]2O)C[C@@H]2O[C@](O)(C[C@@H](O)C[C@@H](O)[C@H](O)CC[C@@H](O)C[C@@H](O)CC(=O)O[C@H]1C)C[C@H](O)[C@H]2C(=O)O	Nannizzia gypsea	0.12
CC(=O)N1CCN(c2ccc(OCC3COC(Cn4ccnc4)(c4ccc(Cl)cc4Cl)O3)cc2)CC1 (stereo not given)	Nannizzia gypsea	0.06
COc1nc(N)c(N=O)c(Nc2ccccc2)n1	Nannizzia gypsea	62.5

----------
Test system: Cryptococcus neoformans
Experiment: Antifungal activity against Cryptococcus neoformans ATCC 32264 assessed as growth inhibition at 7.8 ug/mL after 48 hrs by microplate reader analysis
Format: functional
Settings: ATCC 32264, 48 h, read-out: GI
PARAMETER: inhibition of growth at 7.8 µg/mL (%)

                                   smiles          measured_target  unit_name  obs_value
0           COc1nc(N)c(N=O)c(Nc2ccccc2)n1  Cryptococcus neoformans          %       91.2
1  COc1nc(N)nc2c1ncn2C12CC3CC(CC(C3)C1)C2  Cryptococcus neoformans          %        9.5
2          COc1nc(N)c(N=O)c(OCc2ccccc2)n1  Cryptococcus neoformans          %       78.1
3         COc1nc(N)nc(Nc2cccc(Cl)c2)c1N=O  Cryptococcus neoformans          %       74.9
4                 CCCCNc1nc(N)nc(OC)c1N=O  Cryptococcus neoformans          %       52.4

----------
Measured inhibition of growth at 62.5 µg/mL values are reported for all entries that follow.
Tested on: Candida tropicalis
Test: Antifungal activity against Candida tropicalis assessed as growth inhibition at 62.5 ug/mL by microplate reader analysis
Type: functional
Details: read-out: GI
PARAMETER: inhibition of growth at 62.5 µg/mL (%)

>>> df
                                   smiles  obs_value
0                 CCCCNc1nc(N)nc(OC)c1N=O        100
1          COc1nc(N)c(N=O)c(OCc2ccccc2)n1        100
2           COc1nc(N)c(N=O)c(Nc2ccccc2)n1        100
3  COc1nc(N)nc2c1ncn2C12CC3CC(CC(C3)C1)C2       53.3
4         COc1nc(N)nc(Nc2cccc(Cl)c2)c1N=O       87.9

----------
Assay: Acute toxicity in bony fish assessed as mortality at 0.8 ug/mL after 48 hrs
Conditions: actinopterygii; read-out: Activity
PARAMETER: mortality at 48 h, 0.8 ug/mL (%)

In [3]: df
Out[3]:
                           smiles  unit_name  obs_value
0  COc1nc(N)c(N=O)c(OCc2ccccc2)n1          %        100

----------
Assay: Acute toxicity in bony fish assessed as mortality at 3 ug/mL after 96 hrs
Conditions: actinopterygii; read-out: Activity
PARAMETER: mortality at 96 h, 3 ug/mL

                                   smiles                   parameter  obs_value
0  COc1nc(N)nc2c1ncn2C12CC3CC(CC(C3)C1)C2  mortality at 96 h, 3 ug/mL         0%
